TARGET_UNDER_TEST: human P-gp membranes (Homo sapiens, UniProt P08183)
Construct: purchased
Sequence (P08183 whole entry): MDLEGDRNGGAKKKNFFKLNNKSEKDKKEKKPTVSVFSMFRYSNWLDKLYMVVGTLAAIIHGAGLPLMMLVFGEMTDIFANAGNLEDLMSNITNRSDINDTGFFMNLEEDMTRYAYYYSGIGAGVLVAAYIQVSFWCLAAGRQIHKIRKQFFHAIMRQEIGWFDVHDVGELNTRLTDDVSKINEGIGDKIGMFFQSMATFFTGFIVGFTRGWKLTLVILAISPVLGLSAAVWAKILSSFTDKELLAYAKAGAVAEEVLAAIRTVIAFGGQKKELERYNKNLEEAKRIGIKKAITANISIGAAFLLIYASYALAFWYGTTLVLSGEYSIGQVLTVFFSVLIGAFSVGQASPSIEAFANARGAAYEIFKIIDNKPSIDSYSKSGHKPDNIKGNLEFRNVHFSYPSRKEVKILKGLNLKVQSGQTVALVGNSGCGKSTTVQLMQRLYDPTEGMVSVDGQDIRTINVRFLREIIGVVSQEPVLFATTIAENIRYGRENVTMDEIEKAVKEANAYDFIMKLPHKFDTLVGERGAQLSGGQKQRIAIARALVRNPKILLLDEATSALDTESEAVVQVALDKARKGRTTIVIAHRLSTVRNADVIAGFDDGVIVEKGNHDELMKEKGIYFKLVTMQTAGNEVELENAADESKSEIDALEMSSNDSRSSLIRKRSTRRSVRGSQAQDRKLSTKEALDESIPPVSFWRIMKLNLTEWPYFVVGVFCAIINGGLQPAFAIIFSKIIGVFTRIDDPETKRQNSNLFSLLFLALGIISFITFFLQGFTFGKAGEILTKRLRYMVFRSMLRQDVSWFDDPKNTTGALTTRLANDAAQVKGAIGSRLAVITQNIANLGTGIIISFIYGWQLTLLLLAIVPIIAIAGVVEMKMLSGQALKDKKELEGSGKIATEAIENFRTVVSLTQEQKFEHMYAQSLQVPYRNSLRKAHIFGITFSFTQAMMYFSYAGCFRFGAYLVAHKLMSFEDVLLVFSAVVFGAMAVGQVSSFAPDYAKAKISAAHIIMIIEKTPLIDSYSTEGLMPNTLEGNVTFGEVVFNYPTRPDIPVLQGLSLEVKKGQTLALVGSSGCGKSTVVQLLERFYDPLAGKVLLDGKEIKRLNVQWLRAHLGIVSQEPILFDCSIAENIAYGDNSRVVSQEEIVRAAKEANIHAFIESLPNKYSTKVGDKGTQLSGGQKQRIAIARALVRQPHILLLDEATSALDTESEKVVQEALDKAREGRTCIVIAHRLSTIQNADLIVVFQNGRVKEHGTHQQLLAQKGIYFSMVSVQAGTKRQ
EXPERIMENT_DESCRIPTION: Human P-glycoprotein ATPase activity assay
Assay type: biochemical
RUN_PARAMETERS: 50 μM, human P-gp membranes
Experimental: The ATPase activities were expressed as the rate of phosphate release per milligram of membrane protein and converted to the relative ratio versus the control. This assay was performed in duplicate.
P-gp ATPase activity, ratio of blank (control) reference
Respond with the number and no other words.

Recorded P-gp ATPase activity, ratio of blank (control), per entry:
COc1cc(/C=C/C(=O)N(C)C)ccc1OCc1ccccc1    1.77
CCCOc1ccc(/C=C/C(=O)N2CCC(O)(c3ccccc3)CC2)cc1OC    2.69
COc1cc(/C=C/C(=O)N2CCCCC2)ccc1OCc1ccccc1    2.48

Now consider a different compound.
If you can, please state the reported P-gp ATPase activity, ratio of blank (control) value of CCCOc1ccc(/C=C/C(=O)N(C)Cc2ccccc2)cc1OC .
3.12

----------
TARGET_UNDER_TEST: human P-gp membranes (Homo sapiens, UniProt P08183)
Construct: purchased
EXPERIMENT_DESCRIPTION: Human P-glycoprotein ATPase activity assay
Format: biochemical
RUN_PARAMETERS: 100 μM, human P-gp membranes
REPORTED_PROPERTY: P-gp ATPase activity, ratio of blank (control)
// return just the number, without any unit appended

Take a look at these entries with their results.
CCCOc1ccc(/C=C/C(=O)N2CCC(O)(c3ccccc3)CC2)cc1OC    2.79
COc1cc(/C=C/C(=O)N(C)C)ccc1OCc1ccccc1    5.19
CCCOc1ccc(/C=C/C(=O)N(C)Cc2ccccc2)cc1OC    3.35

Turning now to a further compound:
P-gp ATPase activity, ratio of blank (control) lookup needed for COc1cc(/C=C/C(=O)N2CCCCC2)ccc1OCc1ccccc1 , thanks.
4.02

----------
Parameter: P-gp ATPase activity, ratio of blank (control). Scope: all listed entries.
TARGET_UNDER_TEST: human P-gp membranes (Homo sapiens)
Construct: purchased
EXPERIMENT_DESCRIPTION: Human P-glycoprotein ATPase activity assay
Type: biochemical
RUN_PARAMETERS: 20 μM, human P-gp membranes

Worked set:
COc1cc(/C=C/C(=O)N(C)C)ccc1OCc1ccccc1    1.26
CCCOc1ccc(/C=C/C(=O)N(C)Cc2ccccc2)cc1OC    2.85
COc1cc(/C=C/C(=O)N2CCCCC2)ccc1OCc1ccccc1    1.54

Let us examine a further case.
Which P-gp ATPase activity, ratio of blank (control) is listed for CCCOc1ccc(/C=C/C(=O)N2CCC(O)(c3ccccc3)CC2)cc1OC ?
3.99

----------
EXPERIMENT_DESCRIPTION: Pharmacokinetic study of oral PTX alone or co-administered with compound 5c
Assay type: in vivo, male Sprague-Dawley rats
RUN_PARAMETERS: male, Sprague-Dawley, rat, plasma; PTX 25 mg/kg PO alone, rats; read-out: AUCinf of PTX
REPORTED_PROPERTY: AUC(0-inf)

For the compound shown here, CC(=O)O[C@H]1C(=O)[C@@]2(C)[C@H]([C@H](OC(=O)c3ccccc3)[C@]3(O)C[C@H](OC(=O)[C@H](O)[C@@H](NC(=O)c4ccccc4)c4ccccc4)C(C)=C1C3(C)C)[C@]1(OC(C)=O)CO[C@@H]1C[C@@H]2O [PTX, Paclitaxel] , give the reported AUC(0-inf).
773 ng·h/mL

----------
melting point overview

Worked cases, answers included:
CCCOc1ccc(/C=C/C(=O)N(C)C)cc1OC    108 to 109 °C
CCCOc1ccc(/C=C/C(=O)N2CCCCC2)cc1OC    91 to 92 °C
CCCOc1ccc(/C=C/C(=O)N2CCC(O)(c3ccccc3)CC2)cc1OC    163 to 164 °C
COc1cc(/C=C/C(=O)N2CCCCC2)ccc1OCC(C)C    96 to 97 °C
COc1cc(/C=C/C(=O)N(C)C)ccc1OCc1ccccc1    135 to 136 °C

Attention now turns to another entry.
Would you mind telling me what melting point value was observed for COc1cc(/C=C/C(=O)N(C)C)ccc1OCC(C)C ?
109 to 111 °C

----------
Test system: MCF-7/ADR cells
EXPERIMENT_DESCRIPTION: Toxic effect of each derivative and VER alone (cell survival)
Assay type: cell-based
RUN_PARAMETERS: Homo sapiens, NCI/ADR-RES, 50 μM, 2 h incubation, mean, read-out: cell survival ratio
viability at 50 µM overview
Entry rule: numbers only, all in %.

Examples with answers:
COc1cc(/C=C/C(=O)N2CCCCC2)ccc1OCc1ccccc1    96.9
COc1cc(/C=C/C(=O)N2CCCCC2)ccc1OCC(C)C    96.1
CCCOc1ccc(/C=C/C(=O)N(C)C)cc1OC    97.1
COc1cc(/C=C/C(=O)N(C)C)ccc1OCC(C)C    95
CCCOc1ccc(/C=C/C(=O)N2CCC(O)(c3ccccc3)CC2)cc1OC    89.4

What is its viability at 50 µM for MCF-7/ADR cells? Entry: CCCOc1ccc(/C=C/C(=O)N2CCCCC2)cc1OC
93.8

Lookup: viability at 50 µM / MCF-7/ADR cells / CCCOc1ccc(/C=C/C(=O)N(C)Cc2ccccc2)cc1OC
96.9

Give the reported viability at 50 µM for COc1cc(/C=C/C(=O)N(C)C)ccc1OCc1ccccc1 (system: MCF-7/ADR cells).
99.3

----------
Test system: MCF-7/ADR cells
EXPERIMENT_DESCRIPTION: Toxic effect of each derivative and VER alone (cell survival)
Type: cell-based
RUN_PARAMETERS: Homo sapiens, NCI/ADR-RES, 25 μM, 2 h incubation, mean, read-out: cell survival ratio
REPORTED_PROPERTY: viability at 25 µM (%)
Give just the numeric value; % need not be written.

Answered examples (3):
CCCOc1ccc(/C=C/C(=O)N(C)Cc2ccccc2)cc1OC [Compound 5f]    100
CCCOc1ccc(/C=C/C(=O)N2CCCCC2)cc1OC [Compound 5a]    96
COc1cc(/C=C/C(=O)N(C)C)ccc1OCc1ccccc1 [Compound 5g]    100

GET /values?readout=viability at 25 µM&item= CCCOc1ccc(/C=C/C(=O)N(C)C)cc1OC [Compound 5d]
97.1

Look up viability at 25 µM: COc1cc(/C=C/C(=O)N2CCCCC2)ccc1OCC(C)C [Compound 5b]
96.1

Request the reported viability at 25 µM associated with COc1cc(/C=C/C(=O)N2CCCCC2)ccc1OCc1ccccc1 [Compound 5c]
96.1

Which viability at 25 µM is listed for COc1cc(/C=C/C(=O)N(C)C)ccc1OCC(C)C [Compound 5e] ?
95.8

Param item = CCCOc1ccc(/C=C/C(=O)N2CCC(O)(c3ccccc3)CC2)cc1OC [Compound 5h] ; retrieve measured viability at 25 µM.
94.6
